Experiment: Metabolic stability in mouse liver microsomes assessed as half life
Format: ADME, Microsome
experimentalEndpoint: half-life

Example cases with answers are listed next.
CCn1c(CO)nn(-c2cc3c(C(C)C)nn(-c4ccccc4C)c(=O)c3cc2F)c1=O	> 3 h
CCn1c(CO)nn(-c2cc3c(C(C)C)cn(-c4c(F)cccc4Cl)c(=O)c3cc2F)c1=O	> 3 h
CCn1c(CO)nn(-c2cc3c(C(C)C)nn(-c4c(F)cccc4Cl)c(=O)c3cc2F)c1=O	> 3 h
CCn1c(CO)nn(-c2cc3c([C@@H](C)C(F)(F)F)nn(-c4ccccc4C)c(=O)c3cc2F)c1=O	> 3 h
CCn1c(CO)nn(-c2nc3c(C(C)C)nn(-c4ccccc4C)c(=O)c3cc2F)c1=O	> 3 h

Measured half-life of CCn1c(CO)nn(-c2cc3c(cc2F)c(=O)c(-c2ccccc2C)cn3C(C)C)c1=O : > 3 h

Measured half-life of CCn1c(CO)nn(-c2cc3c(C(C)C)cc(-c4ccccc4C)c(=O)n3cc2F)c1=O : > 3 h

Measured half-life of CCn1c(CO)nn(-c2cc3c(cc2F)c(=O)c(-c2c(F)cccc2Cl)cn3C(C)C)c1=O : > 3 h

Measured half-life of CCn1c(CO)nn(-c2cc3c([C@H](C)C(F)(F)F)nn(-c4ccccc4C)c(=O)c3cc2F)c1=O : > 3 h

Measured half-life of C=C(C)c1nn(-c2c(F)cccc2Cl)c(=O)c2cc(F)c(-n3nc(CO)n(CC)c3=O)cc12 : > 3 h

Measured half-life of CCn1c(CO)nn(-c2cc3c(C(C)C)cn(-c4ccccc4C)c(=O)c3cc2F)c1=O : > 3 h
